Hello, the source for this data is PubChem BioAssay (NCI), in case you need it.

log10(TGI) for assorted molecules
tested on: HS 578T breast; assay: NCI tumour cell line growth inhibition, 48 h
*1 amine or outer side, *2 acyl side, *3 side chain or, on linkers, in order; H or OH if unused. Where a SMILES comes first, the peptide text is derived from it. [ ]: non-standard residue; d: D form. ξ: configuration not given here. X21 = CC[C@@H](C)C(N[*:1])C(=O)[*:2]; ξR = N=C(N)NCCCC(N)C(=O)O; ξI = CCC(C)C(N)C(=O)O; ξL = CC(C)CC(N)C(=O)O; ξK = NCCCCC(N)C(=O)O; ξV = CC(C)C(N)C(=O)O; ξA = CC(N)C(=O)O
Observable: log10(TGI) (log10 of the value in µM)

Molecule	System	log10(TGI)
O=C1CS/C(=N\S(=O)(=O)c2ccc(N3N=C4c5ccccc5CC4C3c3ccc(Cl)cc3)cc2)N1c1ccccc1 (stereo unspecified)	HS 578T breast	1.94
COc1ccc(N(C)c2c3ccccc3nc3[nH]c4ccccc4c23)cc1	HS 578T breast	1.04
COc1ccc2c(c1)/C(=N/OC(C)=O)c1c-2c(=O)[nH]c2ccccc12	HS 578T breast	1.50
COc1ccc(Oc2nc(C#CC(C)(C)O)nc(Oc3ccc(OC)cc3)n2)cc1	HS 578T breast	1.92
Cc1cc2cn3c4cccnc4[nH]c(=O)c3c2cc1C	HS 578T breast	0.64
Cc1cc(N(CCCl)CCCl)ccc1/C=N/NC(=O)Cc1cc(=O)oc2cc(O)ccc12	HS 578T breast	1.75
CCC(C)C1NC(=O)C(CC(C)C)NC(=O)C(C)NC(=O)C(C(C)C)NC(=O)C(CCCCN)NC(=O)C(CC(C)C)NC(=O)C(C(C)C)NC(=O)[C@H](C)NC(=O)C(C(C)CC)NC(=O)C(CCCN=C(N)N)NC(=O)C(CCCCN)NC(=O)C(CCCN=C(N)N)NC(=O)C(CCCCN)NC(=O)C([C@H](C)CC)NC(=O)C(CCCCN)NC1=O (stereo partly specified) (cyclo(A[ξV][ξL][ξK][ξV][ξA][ξL][ξI][ξK][X21][ξK][ξR][ξK][ξR][ξI]))	HS 578T breast	0.67
COc1ccc(N(/C=C/C(=O)C(F)(F)F)CC(=O)c2ccc(Cl)c(Cl)c2)cc1	HS 578T breast	1.16
O=C1CCS/C(=N\S(=O)(=O)c2ccc(N3N=C4c5ccccc5CC4C3c3cccs3)cc2)N1C(=O)c1ccccc1 (stereo unspecified)	HS 578T breast	1.53

----------
tested on: IGROV1 ovarian; test: NCI tumour cell line growth inhibition, 48 h
TGI for assorted compounds
Observable: TGI

> print(dat)
                                   compound  observable  meas.value
1  CC12CCC(C(Nc3ccccn3)C1=O)C2(C)C (stereo not given)         TGI    > 100 µM
2  COC(=O)C1C(OCc2ccccc2)C2CCC1(OC)C=C2C (stereo not given)         TGI    > 100 µM
3  Oc1ccc(C#CCOc2ccccc2)cc1CNCCN(Cc1ccccn1)Cc1ccccn1         TGI     1.66 µM
4  Nc1nc(-c2cccc([N+](=O)[O-])c2)cc(-c2cc(-c3cccc([N+](=O)[O-])c3)nc(N)n2)n1         TGI    > 100 µM
5   Cn1cnc([N+](=O)[O-])c1Sc1nnnn1-c1ccccc1         TGI     33.7 µM

----------
test system: M14 melanoma; assay: NCI tumour cell line growth inhibition, 48 h
TGI for assorted compounds
Observable: TGI

Compound	Meas value
Cc1ccc2c(c1)CNc1ccc(C)cc1CN2	> 100 µM
NC1CC(=O)c2sccc21 (stereo not given)	> 100 µM
N#Cc1nc(CCC(c2nc(C#N)c(N)o2)N2C(=O)c3ccccc3C2=O)oc1N (stereo not given)	> 100 µM
Cc1ccc(S(=O)(=O)N2CCNCCN(S(=O)(=O)c3ccc(C)cc3)CCN(S(=O)(=O)c3ccc(C)cc3)CC2)cc1	> 100 µM
CC(=O)O[C@H]1[C@@H](OC(C)=O)C(C)(C)/C=C/[C@H](C)C(=O)[C@@]2(OC(C)=O)C[C@@](C)(OC(C)=O)[C@H](OC(C)=O)[C@@H]2[C@H]2OC(=O)CC[C@@]2(OC(=O)c2ccccc2)[C@@H]1OCC(C)C	> 100 µM
NC(=O)c1ccc2nc3c(n2c1)C(=O)C(=O)c1ccccc1-3	1.23 µM
O=C(O)C1CCCCC1c1c2ccc(=O)cc-2oc2cc(O)ccc12 (stereo not given)	78.6 µM
O=C1NN(c2ccccc2)C(=O)/C1=C/c1ccc(Br)o1	16.2 µM
Oc1ccccc1-c1n[nH]c(=S)n1/N=C/c1ccc(-c2ccc(Br)cc2)o1	> 100 µM
Cc1cc(=O)oc2cc(OS(C)(=O)=O)ccc12	> 100 µM

----------
tested on: HCC-2998 colon; assay: NCI tumour cell line growth inhibition, 48 h

Compound	TGI
Cc1cc2nc(N3C(=O)/C(=C/c4ccc(Cl)cc4)N=C3c3ccccc3)sc2cc1C	48.5 µM
CCc1nc2ccc(C(F)(F)F)cc2[nH]c1=O	> 100 µM
C/C(=N\N=C(N)N)C(CN(C)C)C(c1ccccc1)c1c(O)c2ccccc2oc1=O (centres undefined)	> 100 µM
CCOC(=O)CSc1[nH]c(NC(=S)Nc2ccccc2)c(C(N)=O)c1C(N)=O	> 10 µM
CCOC(=O)Nc1nc2c(C)cccc2s1	> 100 µM
O=C(NCc1ccncc1)C1COc2cc(-c3cc(=O)c4ccccc4o3)ccc2O1 (centres undefined)	> 100 µM
O=C(c1ccc(Cl)cc1)c1ccc(OCCSCCCCCCCCCCSCCOc2ccc(C(=O)c3ccc(Cl)cc3)cc2)cc1	> 100 µM
CC(=O)O[C@H]1[C@@H](OC(C)=O)C(C)(C)/C=C/[C@H](C)C(=O)[C@@]2(OC(C)=O)C[C@@](C)(OC(C)=O)[C@H](OC(C)=O)[C@@H]2[C@H]2OC(=O)CC[C@@]2(OC(=O)c2ccccc2)[C@@H]1OCC(C)C	> 100 µM
CC(=O)N1c2ccccc2C(C)C1c1[nH]c2ccccc2c1C (centres undefined)	34 µM

----------
tested on: OVCAR-4 ovarian; assay: NCI tumour cell line growth inhibition, 48 h
Observable: GI50

> print(dat)
                    structure.smiles.string  observable  meas.value
1  COc1ccc(N(/C=C/C(=O)C(F)(F)F)CC(=O)c2ccc(Cl)c(Cl)c2)cc1        GI50       32 µM
2  CNCCCNCCCN1C(=O)c2ccc3c4c(ccc(c24)C1=O)C(=O)N(CCCNCc1ccccc1OC)C3=O        GI50    0.642 µM
3  COc1cc(/C=C2\C(=O)Nc3cccc(Cl)c32)cc(OC)c1OC        GI50    > 100 µM
4    O=C1NN(c2ccccc2)C(=O)/C1=C/c1ccc(Br)o1        GI50     15.3 µM
5                 CCOC(=O)Nc1nc2c(C)cccc2s1        GI50     43.2 µM

----------
tested on: OVCAR-8 ovarian; assay: NCI tumour cell line growth inhibition, 48 h
*1 amine or outer side, *2 acyl side, *3 side chain or, on linkers, in order; H or OH if unused. Where a SMILES comes first, the peptide text is derived from it. [ ]: non-standard residue; d: D form. X56 = CC[C@H](C)[C@H](OC(=O)[C@@H](C)[C@@H](CC)N[*:1])C(=O)[*:2]; X32 = C[C@H](N[*:1])C(=O)C(C)(C)C(=O)[*:2]; NMeY = CN[C@@H](Cc1ccc(O)cc1)C(=O)O; NMeL = CN[C@@H](CC(C)C)C(=O)O; NMeV = CN[C@H](C(=O)O)C(C)C

Compound	TGI
COc1ccc2c(c1)C1(C(=O)N2)C(C#N)=C(c2ccccc2)Nc2c1c(-c1ccccc1)nn2-c1ccccc1 (stereo not drawn)	12.7 µM
NC1=Nc2cc(OCCCN3Cc4ccccc4C3)c(OCC3CC3)cc2C12CCCC2	13.9 µM
Cn1c(=O)c(Oc2ccccc2)cc2cnc(NC3CCOCC3)nc21	> 25 µM
Cc1ccc(C(=O)Nc2ccc(S(=O)(=O)O)c3cc(S(=O)(=O)O)cc(S(=O)(=O)O)c23)cc1NC(=O)c1cccc(NC(=O)Nc2cccc(C(=O)Nc3cc(C(=O)Nc4ccc(S(=O)(=O)O)c5cc(S(=O)(=O)O)cc(S(=O)(=O)O)c45)ccc3C)c2)c1 (tested in a mixture with another compound)	> 50 µM
C=C(C(=O)OC)c1cc2ccccc2n1S(=O)(=O)c1ccccc1	8.42 µM
N#CC1CC2(C(=O)C1=O)c1ccccc1-c1ccccc12 (stereo not drawn)	> 100 µM
CC1CCc2sc3[nH]c(=S)n(-c4ccccc4)c(=O)c3c2C1 (stereo not drawn)	> 100 µM
O=c1c2ccccc2nc(-c2cccc(Cl)c2)n1NCC1(O)OCC(O)C(O)C1O (stereo not drawn)	> 100 µM
CCOC(=O)Cn1c(=O)c2cc(-c3ccccc3)cc3c(Cl)nc4c(OC)c(OC)cc1c4c32	44.4 µM
CCOC(=O)Nc1nc2c(C)cccc2s1	> 100 µM
C#CC(O)/C=C/C(O)CCCC(O)CC#CC(O)C#CC(O)CCCC(O)/C=C/CCCC(=O)CCCCCCCCCCCCCCCC(O)C(O)C#CC(=O)O (stereo not drawn)	> 50 µM
NC1CCC(N[C@@H]2C[C@H]2c2ccccc2)CC1 (stereo partly drawn)	> 100 µM
Cc1cc2nc(N3C(=O)/C(=C/c4ccc(Cl)cc4)N=C3c3ccccc3)sc2cc1C	> 100 µM
CC[C@H](C)[C@@H]1OC(=O)[C@@H](C)[C@@H](CC)NC(=O)[C@H](C)NC(=O)C(C)(C)C(=O)[C@H](C)NC(=O)[C@H](Cc2ccc(OC)cc2)N(C)C(=O)[C@H](C(C)C)N(C)C(=O)CNC(=O)[C@H](CC(C)C)N(C)C(=O)CNC1=O (cyclo(A[X56]G[NMeL]G[NMeV][NMeY](Me)[X32]))	1.45 µM
c1ccc(C(CCN2CC3CCC(CC3)C2)c2ccccc2)cc1	98.3 µM
Cc1nnc(-n2c(O)cc(=O)n(-c3ccccc3)c2=S)nc1/C=C/c1ccc(N(C)C)cc1	> 80.2 µM
O=C1CCCC2=C1CC1=C(CCCC1=O)N2c1ccccc1	> 100 µM
COc1cc2c(cc1OCCCCOc1ccc(-c3nc4ccccc4s3)cc1)N=C[C@@H]1CCCN1C2=O	7.98 µM
